test: in vivo; parameters: species or system mice; settings: mouse

| Compound | TD50 [mg/kg] |
| --- | --- |
| O=C1CCCN1C1CN=NN1c1ccc(Cl)cc1 (stereo not shown) | 249 |
